Published IC50 for 11-beta-hydroxysteroid dehydrogenase 1 (Homo sapiens), assembled from different documents, is shown next.
Unit µM implied. Number only.

// query Supply recorded IC50 for CC(C)C1=CC[C@H](C(=O)NCC2CCC3CC2C3(C)C)[C@@]12C=CC(=O)CC2 (stereo not given in full) here.
// result 94

// query Report IC50, nothing else, for this compound: `CCS(=O)(=O)c1cccc(-c2ccc(-c3nnc(C4(c5ccc(Cl)cc5)CCC4)n3C)c(Cl)c2)c1`
// result 0.00098

// query Provide IC50 value for the following compound: `CCCCn1c(C)nnc1C12CC3CC(CC(C3)C1)C2`
// result 0.0724

----------
IC50 values for 11-beta-hydroxysteroid dehydrogenase 1 (Homo sapiens, UniProt P28845), compiled from several publications.
Output spec: scalar in µM, unitless text.

// query Please look at this compound and report its IC50: `O=C1CN(c2ncccc2C(F)(F)F)CCN1S(=O)(=O)c1ccc(Cl)c(Cl)c1`
// result 0.5

// query # return recorded IC50 for entry `CCNC(=O)N1CCN(c2cccc(S(=O)(=O)N3CCN(c4ccc(F)cc4C(F)(F)F)C[C@H]3C)c2)CC1`
// result 0.37

// query Report IC50, nothing else, for this compound: `CCCCCCSc1nnc(S(=O)(=O)C[C@H]2CC=C(C(C)C)[C@]23C=CC(=O)CC3)s1`
// result 121

// query Quick one: give measured IC50 for `c1ccc(C2(c3nnc4n3CCCCCC4)CCCCC2)cc1`
// result 0.013

// query Check the records and state IC50 for `Cc1c(Cl)cccc1S(=O)(=O)Nc1nc(-c2ccc(C#N)cc2)co1`
// result 48

// query Using known records, supply IC50 for `Fc1cccc(C2(c3nnc4n3CCCCCC4)CCC2)c1`
// result 0.002

// query Given the compound O=C(O)CC1(c2ccc(F)cc2)C2CC3CC(C2)CC1(O)C3 (stereo unspecified) , write its reported IC50.
// result 4.71

// query In one line, give reported IC50 of the entry `Cn1c(-c2ccc(O)c(F)c2)nnc1C1(c2ccc(Cl)cc2)CCC1` .
// result 0.002

// query Provide one value: measured IC50 of `N#Cc1ccc(C(=O)CN2C(C(=O)c3ccccc3)=C(O)c3ccccc3S2(=O)=O)cc1`
// result 0.04

// query Read the entry O=C(O)CC1(CCc2ccccc2)C2CC3CC(C2)CC1C3 (stereo unspecified) and write its reported IC50.
// result 0.0022

// query Please indicate IC50 recorded for O=C(O)CC1(Cc2cccc(Cl)c2)C2CC3CC(C2)CC1C3 (stereo unspecified)
// result 0.014

// query Return IC50 for the following compound: C[C@@H]1CN(c2ccc(F)cc2C(F)(F)F)CCN1S(=O)(=O)c1cccc(N2CCC(C(=O)O)C2)c1 (stereo partly specified)
// result 0.16

// query State its IC50: O=C(C1CCCCC1)N1CC2C3CCC(C4CC34)C2C1 (stereo unspecified)
// result 0.03

// query Supply IC50 value. Item: `C[C@@H]1CN(c2ncccc2Cl)C[C@H](C)N1S(=O)(=O)c1ccc(Cl)c(Cl)c1`
// result 1.3

// query State its IC50 for this compound: O=C(C1CCCCC1)N1CC2C3CCC(C3)C2C1 (stereo unspecified)
// result 0.09

// query Read off the recorded IC50 for `Cn1c(-c2cccc(OC(F)(F)F)c2)nnc1C1(c2ccc(Cl)cc2)CCC1`
// result 0.0022

// query Look up and report measured IC50 for this entry: `Cc1nccn1-c1ccc(-c2nnc(C3(c4ccc(Cl)cc4)CCC3)n2C)c(Cl)c1`
// result 0.0026

// query Quickly give me recorded IC50 for `Cn1c(-c2ccc(Cc3ccccc3)cc2)nnc1C1(c2ccc(Cl)cc2)CCC1`
// result 0.068

// query Find the measured IC50 of `O=C(c1ccc(F)cc1)C1CCN(C(=O)c2ccccc2)CC1` and report it.
// result 3.61

----------
pIC50: −log10 of the molar value.
Please find below pIC50 data on 11-beta-hydroxysteroid dehydrogenase 1 (Homo sapiens, UniProt P28845) compiled from the literature.
Sequence (P28845 whole entry): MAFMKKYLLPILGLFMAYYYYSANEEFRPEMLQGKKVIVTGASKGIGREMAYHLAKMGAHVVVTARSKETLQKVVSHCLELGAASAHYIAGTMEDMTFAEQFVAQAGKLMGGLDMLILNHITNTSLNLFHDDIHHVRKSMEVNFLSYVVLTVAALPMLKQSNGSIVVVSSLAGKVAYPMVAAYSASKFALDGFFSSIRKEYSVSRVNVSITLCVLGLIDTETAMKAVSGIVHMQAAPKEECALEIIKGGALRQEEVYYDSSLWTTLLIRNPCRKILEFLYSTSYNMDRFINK
# binarize pIC50: threshold 8 inclusive, high side fulfilled, low side not fulfilled

// query Given `O=C(c1ccc(F)cc1)C1CCN(C(=O)c2cc(F)cc(F)c2)CC1` , state whether its pIC50 is at least 8.
// result not fulfilled

// query Dear colleague, could you confirm whether `CS(=O)(=O)Nc1cccc(C(=O)N2CCC(C(=O)c3ccc(F)cc3)CC2)c1` has pIC50 at or above 8?
// result not fulfilled

// query Check the entry `CC(C)C1=CC[C@H](CSc2nc3ccccc3s2)[C@@]12C=CC(=O)CC2` : does pIC50 equal or exceed 8?
// result not fulfilled

// query Kindly determine if pIC50 recorded for `CC(C)[C@@H]1CC[C@H](CO)[C@]12CC[C@](C)(O)[C@H]1O[C@H]12` is above or exactly 8.
// result not fulfilled

// query API: above_or_equal(metric=pIC50, cutoff=8) for item `CC1=CC[C@@]2(CC1)C(C(C)C)=CC[C@@H]2CO`
// result not fulfilled

// query Does `CCOC[C@H]1CC=C(C(C)C)[C@]12C=CC(=O)CC2` have a reported pIC50 of at least 8?
// result not fulfilled

// query Assess whether reported pIC50 for `CC(C)C1=CC[C@H](CSc2nnnn2-c2ccccc2)[C@@]12C=CC(=O)CC2` sits at 8 or higher.
// result not fulfilled

// query Could you please find out whether O=C(O)CC1(c2cccc(Cl)c2)C2CC3CC(C2)CC1C3 (stereo not drawn) has pIC50 that meets 8 or exceeds it?
// result fulfilled

// query Determine whether this compound has pIC50 no lower than 8: `Cn1c(-c2ccc(C=O)cc2Cl)nnc1C12CCC(c3nc(-c4ccc(F)cc4)no3)(CC1)CC2`
// result not fulfilled

// query API: above_or_equal(metric=pIC50, cutoff=8) for item CC1CCCCN1C(=O)c1ccc(NC(=O)c2ccc(Cl)cc2Cl)cc1 (stereo not drawn)
// result not fulfilled

// query Answer whether pIC50 of `Clc1ccc(C2(c3nnc4n3CCCCCC4)CCCC2)cc1` is greater than or equal to 8.
// result fulfilled

----------
Collected literature values of pIC50 measured for 11-beta-hydroxysteroid dehydrogenase 1 (Homo sapiens, UniProt P28845).
pIC50: −log10 of the molar value.

// query Report value only: pIC50, 11-beta-hydroxysteroid dehydrogenase 1 (Homo sapiens, UniProt P28845), `CCOC(=O)[C@H]1CC=C(C(C)C)[C@]12C=CC(=O)[C@@H](OC(C)=O)C2`
// result < 3.00

// query Give the observed pIC50 of `CS(=O)(=O)c1ccc(C(=O)N2CCC(C(=O)c3ccc(F)cc3)CC2)cc1` for 11-beta-hydroxysteroid dehydrogenase 1 (Homo sapiens, UniProt P28845).
// result < 4.52

// query # assay system 11-beta-hydroxysteroid dehydrogenase 1 (Homo sapiens, UniProt P28845): give pIC50 of `CCCSc1ncccc1C(=O)N[C@H]1CC[C@@H](C(=O)O)CC1`
// result < 4.52

// query System 11-beta-hydroxysteroid dehydrogenase 1 (Homo sapiens, UniProt P28845). Read-out pIC50. Item `CC(C)[C@@H]1CC[C@H](CO)[C@]12CC[C@@](C)(O)C[C@H]2O` . Report value.
// result < 3.00
